- Tested on: NCI-H1876 complex spheroid viability
- TEST PROTOCOL: Anticancer human tumor NCI-H1876 cell line growth inhibition [LSD1]; active means viability on the fitted dose curve at most 10% of control; inactive means the rest
- CONDITION PARAMETERS: second compound 3.16 µM; first compound 1 µM
- From the text: Multicellular complex tumor spheroid response to LSD1 Inhibitor Iadademstat in combination with a variety of drugs and investigational agents in selected tumor cell lines The current study was undertaken to assess response to LSD1 inhibitors in combination with standard-of-care drugs and investigational agents in solid tumor complex spheroid models as well as in the K-562 leukemia. […] Compounds. […] If the clinical Cmax for an agent had not been determined, the highest concentration tested was 10 microM. […]
Outcomes: active, inactive

{"MOLECULE": "CC(C)c1c(-c2ccccc2)nc2c(C#N)c[nH]n2c1=O + NC1CC1c1ccc(-c2cccc(O)c2)cc1", "CLASS NAME": "inactive"}
{"MOLECULE": "CC1COCCN1c1cc(-c2ccnn2C)c2ccnc(-c3ccn[nH]3)c2n1 (stereo not given) + NC1CCC(NC2CC2c2ccccc2)CC1", "CLASS NAME": "inactive"}
{"MOLECULE": "CC1COCCN1c1cc(-c2ccnn2C)c2ccnc(-c3ccn[nH]3)c2n1 (stereo not given) + NC1CC1c1ccc(-c2cccc(O)c2)cc1", "CLASS NAME": "active"}
{"MOLECULE": "O=C(C=Cn1cnc(-c2cc(C(F)(F)F)cc(C(F)(F)F)c2)n1)NNc1cnccn1 + NC1CCC(NC2CC2c2ccccc2)CC1", "CLASS NAME": "inactive"}
{"MOLECULE": "CC(C)c1c(-c2ccccc2)nc2c(C#N)c[nH]n2c1=O + NC1CCC(NC2CC2c2ccccc2)CC1", "CLASS NAME": "inactive"}

---

- System: NCI-H1876 complex spheroid viability
- TEST PROTOCOL: Anticancer human tumor NCI-H1876 cell line growth inhibition [LSD1]
- CONDITION PARAMETERS: second compound 3.16 µM; first compound 0.0949 µM; active compounds read low
Form field: viability, T/C (one value per entry).

{"MOLECULE": "COc1cc(C2c3cc4c(cc3C(OC3OC5COC(C)OC5C(O)C3O)C3COC(=O)C23)OCO4)cc(OC)c1O (centres undefined) + NC1CCC(NC2CC2c2ccccc2)CC1", "UNIT TEXT": "%", "viability, T/C": 29.7}
{"MOLECULE": "Nc1ncn(C2CC(O)C(CO)S2)c(=O)n1 (centres undefined) + NC1CC1c1ccc(-c2cccc(O)c2)cc1", "UNIT TEXT": "%", "viability, T/C": 72.1}
{"MOLECULE": "COc1cc(C2c3cc4c(cc3C(OC3OC5COC(C)OC5C(O)C3O)C3COC(=O)C23)OCO4)cc(OC)c1O (centres undefined) + NC1CC1c1ccc(-c2cccc(O)c2)cc1", "UNIT TEXT": "%", "viability, T/C": 19.9}
{"MOLECULE": "CCc1c2c(nc3ccc(O)cc13)-c1cc3c(c(=O)n1C2)COC(=O)[C@]3(O)CC + NC1CCC(NC2CC2c2ccccc2)CC1", "UNIT TEXT": "%", "viability, T/C": 0.31}

---

- System: NCI-H1876 complex spheroid viability
- TEST PROTOCOL: Anticancer human tumor NCI-H1876 cell line growth inhibition [LSD1];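 further: spheroids exposed to compounds for one week before readout; 100% = DMSO vehicle-treated spheroids so lower means fewer viable cells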
- CONDITION PARAMETERS: second compound 0.316 µM; first compound 0.03 µM; active compounds read low
QUANTITY KIND: viability, T/C (%)

{"COMPOUND": "Nc1ncn(C2CC(O)C(CO)S2)c(=O)n1 (centres undefined) + NC1CC1c1ccc(-c2cccc(O)c2)cc1", "QUANTITY KIND": "viability, T/C", "UNIT TEXT": "%", "READOUT VALUE": 86.4}
{"COMPOUND": "CCN(c1cc(-c2ccc(CN3CCOCC3)cc2)cc(C(=O)NCc2c(C)cc(C)[nH]c2=O)c1C)C1CCOCC1 + NC1CC1c1ccc(-c2cccc(O)c2)cc1", "QUANTITY KIND": "viability, T/C", "UNIT TEXT": "%", "READOUT VALUE": 106}
{"COMPOUND": "CCc1c2c(nc3ccc(O)cc13)-c1cc3c(c(=O)n1C2)COC(=O)[C@]3(O)CC + NC1CCC(NC2CC2c2ccccc2)CC1", "QUANTITY KIND": "viability, T/C", "UNIT TEXT": "%", "READOUT VALUE": 34.6}
{"COMPOUND": "O=C(C=Cc1cccc(S(=O)(=O)Nc2ccccc2)c1)NO + NC1CCC(NC2CC2c2ccccc2)CC1", "QUANTITY KIND": "viability, T/C", "UNIT TEXT": "%", "READOUT VALUE": 101}

---

Form field: viability, T/C (one value per entry).
- Test system: NCI-H1876 complex spheroid viability
- TEST PROTOCOL: Anticancer human tumor NCI-H1876 cell line growth inhibition [LSD1];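 further: spheroids exposed to compounds for one week before readout; 100% = DMSO vehicle-treated spheroids so lower means fewer viable cells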
- CONDITION PARAMETERS: second compound 3.16 µM; first compound 0.0949 µM; active compounds read low

{"MOLECULE": "Nc1ccccc1NC(=O)c1ccc(CNC(=O)OCc2cccnc2)cc1 + NC1CCC(NC2CC2c2ccccc2)CC1", "viability, T/C [%]": 80}
{"MOLECULE": "NS(=O)(=O)OCC1CC(n2ccc3c(NC4CCc5ccccc54)ncnc32)CC1O (centres undefined) + NC1CC1c1ccc(-c2cccc(O)c2)cc1", "viability, T/C [%]": 53.6}
{"MOLECULE": "Nc1ccn(C2OC(CO)C(O)C2(F)F)c(=O)n1 (centres undefined) + NC1CCC(NC2CC2c2ccccc2)CC1", "viability, T/C [%]": 17.9}
{"MOLECULE": "NS(=O)(=O)OCC1CC(n2ccc3c(NC4CCc5ccccc54)ncnc32)CC1O (centres undefined) + NC1CCC(NC2CC2c2ccccc2)CC1", "viability, T/C [%]": 48.4}

---

Form field: viability, T/C (one value per entry).
- Tested on: NCI-H1876 complex spheroid viability
- TEST PROTOCOL: Anticancer human tumor NCI-H1876 cell line growth inhibition [LSD1];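 further: spheroids exposed to compounds for one week before readout; 100% = DMSO vehicle-treated spheroids so lower means fewer viable cells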
- CONDITION PARAMETERS: second compound 10 µM; first compound 0.316 µM; active compounds read low

{"MOLECULE": "CC1(C)CCC(CN2CCN(c3ccc(C(=O)NS(=O)(=O)c4ccc(NCC5CCOCC5)c([N+](=O)[O-])c4)c(Oc4cnc5[nH]ccc5c4)c3)CC2)=C(c2ccc(Cl)cc2)C1 + NC1CC1c1ccc(-c2cccc(O)c2)cc1", "viability, T/C (%)": 110}
{"MOLECULE": "Nc1ncn(C2CC(O)C(CO)O2)c(=O)n1 (centres undefined) + NC1CC1c1ccc(-c2cccc(O)c2)cc1", "viability, T/C (%)": 93.4}
{"MOLECULE": "COc1cc(Nc2ncc3c(n2)-c2ccc(Cl)cc2C(c2c(F)cccc2OC)=NC3)ccc1C(=O)O + NC1CCC(NC2CC2c2ccccc2)CC1", "viability, T/C (%)": 31.5}
{"MOLECULE": "CC1COCCN1c1cc(-c2ccnn2C)c2ccnc(-c3ccn[nH]3)c2n1 (centres undefined) + NC1CCC(NC2CC2c2ccccc2)CC1", "viability, T/C (%)": 16.7}

---

- System: NCI-H1876 complex spheroid viability
- TEST PROTOCOL: Anticancer human tumor NCI-H1876 cell line growth inhibition [LSD1];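 further: spheroids exposed to compounds for one week before readout; 100% = DMSO vehicle-treated spheroids so lower means fewer viable cells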
- CONDITION PARAMETERS: second compound 3.16 µM; first compound 0.0316 µM; active compounds read low
QUANTITY KIND: viability, T/C (%)

{"MOLECULE": "Nc1ncn(C2CC(O)C(CO)O2)c(=O)n1 (configuration not stated) + NC1CC1c1ccc(-c2cccc(O)c2)cc1", "UNIT TEXT": "%", "READOUT VALUE": 107}
{"MOLECULE": "COc1ccc([C@@H](O)c2cc(-c3ncnc4cc(N5CCOCC5)ccc34)c(F)cc2Cl)nn1 + NC1CC1c1ccc(-c2cccc(O)c2)cc1", "UNIT TEXT": "%", "READOUT VALUE": 93.9}
{"MOLECULE": "CC1(C)CCC(CN2CCN(c3ccc(C(=O)NS(=O)(=O)c4ccc(NCC5CCOCC5)c([N+](=O)[O-])c4)c(Oc4cnc5[nH]ccc5c4)c3)CC2)=C(c2ccc(Cl)cc2)C1 + NC1CCC(NC2CC2c2ccccc2)CC1", "UNIT TEXT": "%", "READOUT VALUE": 115}
{"MOLECULE": "COc1ccc([C@@H](O)c2cc(-c3ncnc4cc(N5CCOCC5)ccc34)c(F)cc2Cl)nn1 + NC1CCC(NC2CC2c2ccccc2)CC1", "UNIT TEXT": "%", "READOUT VALUE": 113}
{"MOLECULE": "O=C(c1cc(Cc2n[nH]c(=O)c3ccccc23)ccc1F)N1CCN(C(=O)C2CC2)CC1 + NC1CC1c1ccc(-c2cccc(O)c2)cc1", "UNIT TEXT": "%", "READOUT VALUE": 102}
{"MOLECULE": "Cn1ncnc1C1c2n[nH]c(=O)c3cc(F)cc(c23)NC1c1ccc(F)cc1 (configuration not stated) + NC1CCC(NC2CC2c2ccccc2)CC1", "UNIT TEXT": "%", "READOUT VALUE": 88.1}
{"MOLECULE": "CC(C)CC(NC(=O)C(Cc1ccccc1)NC(=O)c1cnccn1)B(O)O (configuration not stated) + NC1CC1c1ccc(-c2cccc(O)c2)cc1", "UNIT TEXT": "%", "READOUT VALUE": 0.14}
